# EXPERIMENTAL DETAILS: Inhibition of soybean lipoxygenase measured for 6 mins
# Design: species or system Glycine max
pIC50: −log10 of the molar value.
ASSAY READOUT: pIC50

MOLECULE	NUMERIC READOUT
Br.COc1ccc2cc(C3(O)CN(C)CCO3)ccc2c1 (stereo unspecified)	4.70

1: COc1ccc2cc([C@H](C)C(=O)O)ccc2c1 [NAPROXEN]
2: Br.COc1ccc2cc(C3(O)CN4CCCCC4CO3)ccc2c1 (stereo unspecified)
Task: Lab log: flag the item ( 1 or 2 ) with the smaller pIC50 figure. Reply with the label of the item you choose.
Output: 2
(2: 4.28, 1: 4.62)

----------
# Lookup of reported Activity keyed by entry
# Tested on: Rattus norvegicus
# EXPERIMENTAL DETAILS: Antidyslipidemic activity against triton WR-1339-induced hyperlipidemia in rat assessed as reduction in plasma total cholesterol level at 56 umol/kg, ip after 24 hrs relative to control
# Assay type: functional
# Set-up: scale not given: the % may be the effect or the level left
Enter your answer as a number in %; do not include the unit.

In the examples that follow, each entry is paired with its recorded Activity.
MOLECULE	Activity [%]
CN1CC(O)(c2ccc(-c3ccccc3)cc2)OC2CCCCC21 (centres undefined)	54
Br.CN1CCOC(O)(c2ccc3ccccc3c2)C1 (centres undefined)	51
Br.COc1ccc2cc(-c3ccc(C4(O)CN5CCCCC5CO4)cc3)ccc2c1 (centres undefined)	19
Br.OC1(c2ccc3ccccc3c2)CN2CCCCC2CO1 (centres undefined)	33
Br.OC1(c2ccc(-c3ccc4ccccc4c3)cc2)CN2CCCCC2CO1 (centres undefined)	49
Br.COc1ccc2cc(-c3ccc(C4(O)CN(C)C5CCCCC5O4)cc3)ccc2c1 (centres undefined)	32
Br.CN1CC(O)(c2ccc3ccccc3c2)OC2CCCCC21 (centres undefined)	43
Br.COc1ccc2cc(C3(O)CN(C)CCO3)ccc2c1 (centres undefined)	62
Br.COc1ccc2cc(C3(O)CN4CCCCC4CO3)ccc2c1 (centres undefined)	45
Br.CN1CC(O)(c2ccc(-c3ccc4ccccc4c3)cc2)OC2CCCCC21 (centres undefined)	43

// Activity lookup, molecule = Br.COc1ccc2cc(-c3ccc(C4(O)CN(C)CCO4)cc3)ccc2c1 (centres undefined) , result: 41

GET /value?item= CC(C)(Sc1cc(C(C)(C)C)c(O)c(C(C)(C)C)c1)Sc1cc(C(C)(C)C)c(O)c(C(C)(C)C)c1 &field=Activity returns 18

Entry Br.COc1ccc2cc(C3(O)CN(C)C4CCCCC4O3)ccc2c1 (centres undefined) , Activity reported as 36

// sample Br.CN1CCOC(O)(c2ccc(-c3ccc4ccccc4c3)cc2)C1 (centres undefined) , its Activity was 37

----------
# System: Rattus norvegicus
# EXPERIMENTAL DETAILS: Antidyslipidemic activity against triton WR-1339-induced hyperlipidemia in rat assessed as reduction in plasma triglyceride level at 56 umol/kg, ip after 24 hrs relative to control
# Format: functional
# Parameters: scale not given: the % may be the effect or the level left
Listing of entries alongside the reported Activity.
Write it as a number; the unit % goes unstated.

Please review the following examples before continuing.
COMPOUND	ASSAY READOUT	UNIT DESCRIPTOR	NUMERIC READOUT
Br.CN1CC(O)(c2ccc3ccccc3c2)OC2CCCCC21 (centres undefined)	Activity	%	51
Br.CN1CC(O)(c2ccc(-c3ccc4ccccc4c3)cc2)OC2CCCCC21 (centres undefined)	Activity	%	32
Br.COc1ccc2cc(-c3ccc(C4(O)CN5CCCCC5CO4)cc3)ccc2c1 (centres undefined)	Activity	%	6

Activity measured on Br.COc1ccc2cc(C3(O)CN(C)C4CCCCC4O3)ccc2c1 (centres undefined) = 47

The measured Activity associated with Br.OC1(c2ccc3ccccc3c2)CN2CCCCC2CO1 (centres undefined) reads 41

// sample Br.CN1CCOC(O)(c2ccc(-c3ccc4ccccc4c3)cc2)C1 (centres undefined) , its Activity was 28

Per the record, Br.OC1(c2ccc(-c3ccc4ccccc4c3)cc2)CN2CCCCC2CO1 (centres undefined) has Activity of 34

Sample Br.CN1CCOC(O)(c2ccc3ccccc3c2)C1 (centres undefined) ; Activity observed: 40

Per the record, Br.COc1ccc2cc(-c3ccc(C4(O)CN(C)C5CCCCC5O4)cc3)ccc2c1 (centres undefined) has Activity of 82

Entry CN1CC(O)(c2ccc(-c3ccccc3)cc2)OC2CCCCC21 (centres undefined) ; Activity = 49

Activity recorded for this compound, CC(C)(Sc1cc(C(C)(C)C)c(O)c(C(C)(C)C)c1)Sc1cc(C(C)(C)C)c(O)c(C(C)(C)C)c1 , is 11

Entry Br.COc1ccc2cc(C3(O)CN4CCCCC4CO3)ccc2c1 (centres undefined) — recorded Activity = 37

response.value for Br.COc1ccc2cc(C3(O)CN(C)CCO3)ccc2c1 (centres undefined) (field: Activity) = 51

Activity in this record for Br.COc1ccc2cc(-c3ccc(C4(O)CN(C)CCO4)cc3)ccc2c1 (centres undefined) : 30
